- PROTOCOL SUMMARY: in vivo
- Set-up: species or system Swiss-Webster mice
- CONDITION: female, CFW (Swiss-Webster), mouse, ip, 100 mg/kg, Calc. Conc. (plasma concentration)
MEASURE: concentration at 0.08 h (ng/mL)
Numeric answer only, unit ng/mL assumed.

**Q:** Query: concentration at 0.08 h; subject: C[C@@H](O)[C@H]1C(=O)N2C(C(=O)[O-])=C(SC3Cn4cnc[n+]4C3)[C@H](C)[C@H]12 (stereo partly shown) [Biapenem]
**A:** 1770

====

- PROTOCOL SUMMARY: Plasma pharmacokinetics of Compound I after single intraperitoneal dose in Swiss-Webster mice (Example 1)
- Type: in vivo
- CONDITION: female, CFW (Swiss-Webster), mouse, plasma, ip, 15 mg/kg, mouse plasma, 15 mg/kg intraperitoneal, samples m.p. 8.x = 8th time point (2.0 h), individual animals; read-out: Calc. Conc. (plasma concentration)
- Protocol: Example 1 provides a summary of three pharmacokinetic studies Compound I conducted in Swiss-webster mice. The pharmacokinetics of 5 mg/kg, 15 mg/kg and 50 mg/kg of Compound I via the intraperitoneal route were discussed. Compound I was prepared using the method described in the U.S. Publication 2012/0040932 A1. […] After acclimation, mice were administered a single intraperitoneal dose of Compound I at 5, 15, and 50 mg/kg. […] The plasma samples were stored on −80° C. until analyzed. […]
MEASURE: concentration at 2 h (ng/mL)
Write the number in ng/mL without appending the unit.

**Q:** Given the compound O=C(O)C[C@@H]1CC[C@H](NC(=O)Cc2cccs2)B(O)O1 [Compound I] , what is its reported concentration at 2 h?
**A:** 126

====

- PROTOCOL SUMMARY: Single-dose pharmacokinetics of Compound I, intravenous 30-minute infusion in Cynomologus monkeys (Example 5)
- Type: in vivo
- CONDITION: cynomolgus, in vivo, Monkey, 20 mg/kg IV
MEASURE: AUC (µg·h/mL)
Lab book: enter the figure in µg·h/mL, no units written.

**Q:** For the compound `O=C(O)C[C@@H]1CC[C@H](NC(=O)Cc2cccs2)B(O)O1` , what AUC is on record?
**A:** 41.8

====

- PROTOCOL SUMMARY: Plasma pharmacokinetics of Compound I after single intraperitoneal dose in Swiss-Webster mice (Example 1)
- Type: in vivo
- CONDITION: female, CFW (Swiss-Webster), mouse, plasma, ip, 50 mg/kg, mouse plasma, 50 mg/kg intraperitoneal, samples m.p. 6.x = 6th time point (0.75 h), individual animals; read-out: Calc. Conc. (plasma concentration)
MEASURE: concentration at 0.75 h

**Q:** Given the molecule O=C(O)C[C@@H]1CC[C@H](NC(=O)Cc2cccs2)B(O)O1 [Compound I] , what is its reported concentration at 0.75 h?
**A:** 19100 ng/mL

====

- PROTOCOL SUMMARY: Plasma pharmacokinetics of Compound I after single intraperitoneal dose in Swiss-Webster mice (Example 1)
- Format: in vivo
- CONDITION: Swiss-Webster mice, plasma, 50 mg/kg intraperitoneal
MEASURE: AUC (ng·h/mL)
Report only the number, with the unit ng·h/mL understood.

**Q:** Can you share its AUC? I mean this compound: O=C(O)C[C@@H]1CC[C@H](NC(=O)Cc2cccs2)B(O)O1 [Compound I]
**A:** 31400
